Entries and their chromatographic logP values follow.
- method summary: physchem
- cond: pH 7.8
// no unit string in output, number only

>>> endpoint_value("O=Cc1cccc(Nc2ncc(Cl)c(NCC(F)F)n2)c1 [Verbindung 47]")
2.49
>>> endpoint_value("FC(F)(F)CNc1nc(Nc2ccccc2)ncc1Cl [Verbindung 3]")
3.09

Let's switch to this compound now.
Return reported chromatographic logP; argument: O=Cc1cccc(Nc2ncc(Cl)c(NCC(F)(F)F)n2)c1 [Verbindung 46]
2.67

====

- method summary: physchem
- cond: pH 2.3
reported metric: chromatographic logP
// no unit string in output, number only

The cases that follow already have their chromatographic logP on record.
>>> endpoint_value("CC(Nc1nc(Nc2ccccc2)ncc1Cl)C(F)(F)F (stereo not shown) [Verbindung 2]")
2.87
>>> endpoint_value("O=c1[nH]c(Nc2ccccc2)ncc1Br [IX-1, 2-Anilino-5-brompyrimidin-4(3H)-on]")
1.62
>>> endpoint_value("FC(F)(F)CNc1nc(Nc2ccccc2)ncc1Cl [Verbindung 3]")
2.56

Return reported chromatographic logP; argument: FC(F)CNc1nc(Nc2ccccc2)ncc1Cl [Verbindung 1]
1.89
